Exercise: state measured enrichment ratio for each of the variants provided.
B1: PhoQ; a variant is named by its letters at X, in order, P23837 (parent)
chain: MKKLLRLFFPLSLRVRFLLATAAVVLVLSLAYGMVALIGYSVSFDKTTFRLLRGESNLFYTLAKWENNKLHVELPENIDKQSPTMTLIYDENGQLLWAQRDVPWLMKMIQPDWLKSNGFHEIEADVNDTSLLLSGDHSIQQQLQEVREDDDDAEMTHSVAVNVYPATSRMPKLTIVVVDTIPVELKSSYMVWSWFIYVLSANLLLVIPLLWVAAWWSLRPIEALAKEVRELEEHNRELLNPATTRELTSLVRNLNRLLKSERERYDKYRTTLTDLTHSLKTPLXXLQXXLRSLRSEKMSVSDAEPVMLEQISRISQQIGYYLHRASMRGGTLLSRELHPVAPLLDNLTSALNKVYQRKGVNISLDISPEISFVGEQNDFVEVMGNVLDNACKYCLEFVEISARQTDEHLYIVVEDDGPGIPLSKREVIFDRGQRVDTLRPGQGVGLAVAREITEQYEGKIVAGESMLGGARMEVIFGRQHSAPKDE

# Variants of: B1
# procedure.details: enrichment ratio after two sorts for PhoP signalling (ratio (wild type AVST 3.29)); higher = more functional
# conditions.used: with PhoP (E. coli)
In all, about 140,000 sequences were measured (“enrichment ratio after two sorts for PhoP signalling”: median about 0, highest 2% from about 11 on). Many of the other results were omitted from the sample, so the highest values are more common in it than they were.

Record excerpt, results attached:
>  <mutant.label>
NICR

>  <enrichment ratio>
≤ 0.25

$$$$
>  <mutant.label>
LHPY

>  <enrichment ratio>
≤ 0.25

$$$$
>  <mutant.label>
WTPD

>  <enrichment ratio>
≤ 0.25

$$$$

Need enrichment ratio for each of these variants.
1. FCLC
2. KCMM
3. TMWP
4. PCYL
5. RTKL
6. MMNV
7. VCLN

Result:
1. 7.16
2. ≤ 0.25
3. ≤ 0.25
4. ≤ 0.25
5. ≤ 0.25
6. ≤ 0.25
7. 2.29

Need enrichment ratio for each of these variants.
1. SEPV
2. SFFV
3. LPWH
4. SQIG

Result:
1. ≤ 0.25
2. ≤ 0.25
3. ≤ 0.25
4. 9.99

Need enrichment ratio for each of these variants.
1. TCNE
2. RYKI

Result:
1. 19.6
2. ≤ 0.25
